- MEASURED TARGET: T1, Cynomolgus CD3εδ Fc heterodimer (Cy CD3ε Fc / CD3δ Fc-HIS) (cynomolgus, UniProt Q95LI8 22-100)
- T1 chain 1: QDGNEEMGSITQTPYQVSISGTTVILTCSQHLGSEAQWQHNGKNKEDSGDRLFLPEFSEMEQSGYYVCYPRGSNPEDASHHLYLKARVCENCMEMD
- T1 chain 2: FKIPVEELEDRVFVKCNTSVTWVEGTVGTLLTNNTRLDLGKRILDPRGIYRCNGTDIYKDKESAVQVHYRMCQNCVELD
- ASSAY REMARKS: BLI (Octet), IgG on AHC sensor, pH 6.0
This listing pairs binders with measured koff.
Write it as a number; the unit s⁻¹ goes unstated.

Incoming: Param item = SAD10319_P04_E12 (ADI-48642) (antibody, V domains shown, IgG; also called Ab43) VH: QVQLVQSGAEVKKPGASVKVSCKASGYTFTSYPMHWVRQAPGQRLEWMGWIDAGTGLTTYSQKFQGRVTITRDTSASTAYMELSSLRSEDTAVYYCARDHYHRYFYDMWGQGTLVTVSS VL: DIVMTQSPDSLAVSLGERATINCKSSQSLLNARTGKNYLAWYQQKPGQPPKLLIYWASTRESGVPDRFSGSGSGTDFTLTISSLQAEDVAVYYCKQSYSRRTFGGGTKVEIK ; retrieve measured koff.
Outgoing: 0.00307

Incoming: Quick one: SAD10319_P02_H04 (ADI-57313) (antibody, V domains shown, IgG; also called Ab254) VH: QVQLVQSGAEVKKPGASVKVSCKASGYTFTSYAMHWVRQAPGQRLEWMGWINPDTGATKYSQKFQGRVTITRDTSASTAYMELSSLRSEDTAVYYCARDAHGHYFYDVWGQGTLVTVSS VL: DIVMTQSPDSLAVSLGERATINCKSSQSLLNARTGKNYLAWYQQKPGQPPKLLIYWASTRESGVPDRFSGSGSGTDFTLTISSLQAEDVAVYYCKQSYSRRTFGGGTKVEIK
Outgoing: 0.00313

Incoming: Quick one: SAD10319_P02_A05 (ADI-48629) (antibody, V domains shown, IgG; also called Ab255) VH: QVQLVQSGAEVKKPGASVKVSCKASGYTFDSYAMHWVRQAPGQRLEWMGWINPNTGATTYSQKFQGRVTITRDTSASTAYMELSSLRSEDTAVYYCARDHYGHYFYDVWGQGTLVTVSS VL: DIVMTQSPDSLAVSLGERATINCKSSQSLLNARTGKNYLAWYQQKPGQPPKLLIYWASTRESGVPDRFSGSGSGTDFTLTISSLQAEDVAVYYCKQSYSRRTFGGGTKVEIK
Outgoing: 0.0269

Incoming: Quick one: SAD10319_P03_F09 (ADI-57329) (antibody, V domains shown, IgG; also called Ab27) VH: QVQLVQSGAEVKKPGASVKVSCKASGYTFPSYPMHWVRQAPGQRLDWMGWINPDTGATVYSQKFQGRVTITRDTSASTAYMELSSLRSEDTAVYYCARDAYHHYFYDVWGQGTLVTVSS VL: DIVMTQSPDSLAVSLGERATINCKSSQSPLNARTGKNYLAWYQQKPGQPPKLLIYWASTRESGVPDRFSGSGSGTDFTLTISSLQAEDVAVYYCKQSYSRRTFGGGTKVEIK
Outgoing: 0.0199

Incoming: Quick one: SAD10319_P06_E08 (ADI-57426) (antibody, V domains shown, IgG; also called Ab155) VH: QVQLVQSGAEVKKPGASVKVSCKASGYTFIKYVMHWVRQAPGQRLEWMGDIDPDTGATEYSQKFQGRVTITRDTSASTAYMELSSLRSEDTAVYYCARDDYHHYFYDVWGQGTLVTVSS VL: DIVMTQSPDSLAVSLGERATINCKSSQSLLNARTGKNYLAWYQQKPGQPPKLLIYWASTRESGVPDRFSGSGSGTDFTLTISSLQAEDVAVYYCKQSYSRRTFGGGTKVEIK
Outgoing: 0.0105

Incoming: Quick one: LAD9963_P01_E06 (ADI-57443) (antibody, V domains shown) VH: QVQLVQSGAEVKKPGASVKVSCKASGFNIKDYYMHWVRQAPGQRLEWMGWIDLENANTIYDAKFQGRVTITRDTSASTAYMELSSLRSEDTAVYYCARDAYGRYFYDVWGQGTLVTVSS VL: DIVMTQSPDSLAVSLGERATINCKSSQSLLNAHTGKNYLAWYQQKPGQPPKLLIYWASTRESGVPDRFSGSGSGTDFTLTISSLQAEDVAVYYCKQSYSRRTFGGGTKVEIK
Outgoing: 0.000866
